Reference source: PubChem BioAssay

- experiment-notes: modulators of HCV replicon luciferase signal, primary screen, HCV replication inhibitor project, Huh7 cells, luciferase reporter (AID 1109);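 note: huh7 hepatoma cells harbouring a luciferase neomycin HCV replicon reporter; luciferase luminescence as measure of HCV replicon replication; test concentration not given here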
- test-parameters: 48 h, higher = more signal
assay-endpoint: z-score
Just the number, please, no unit attached.

Prompt: // z-score lookup, key: COc1ccc(C(O)C2C=CC3C(=O)N(c4ccccc4)C(=O)C3N2Nc2ccc(C#N)cc2)c2ccccc12 (stereo not given)
Response: -0.46

Prompt: z-score lookup needed for CC(C)N1C(=O)[C@@]2(c3ccc([N+](=O)[O-])cc3)CC(=O)N(C3CCCCC3)[C@@H]2c2ccc(CO)cc21 , thanks.
Response: 0.711

Prompt: Request the reported z-score associated with CC(C)(C)OC(=O)CC[C@]1(C(=O)O)N=C(c2ccc(OCCCO)cc2)O[C@H]1c1ccccc1
Response: -0.733

Prompt: Could you share which z-score value was measured for COCCCNC(=O)[C@@H]1c2ccccc2C(=O)N(Cc2ccccc2C(F)(F)F)[C@H]1c1ccc(CO)cc1 ?
Response: -0.469

Prompt: Find the recorded z-score belonging to COCCOC(=O)N1C(=O)[C@@]2(c3cc(C#CC4(O)CCCCCC4)ccc31)[C@H](C(N)=O)[C@H]1C(=O)O[C@H](c3ccccc3)[C@H](c3ccccc3)N1[C@@H]2c1ccccc1OCCO and report it.
Response: -3.3

Prompt: # query: z-score of entry O=C1OCC=C[C@H]2OC34C=CCN(Cn5nnc6ccccc65)C(=O)[C@H]3N(CCCCCCO)C(=O)[C@@H]4[C@@H]12 (stereo not given in full)
Response: -0.113

Prompt: // z-score lookup, key: COc1c(C)cc(-c2cc3c(c(Cc4ccccc4)n2)[Si](C(C)C)(C(C)C)OC3)cc1C
Response: -0.637

Prompt: Given the molecule NCCCCCNC(=O)[C@@H]1C[C@@H]2C(=O)N[C@@H](CCCCN)C(=O)N2[C@@H]1c1cccc(OCCO)c1 , what is its reported z-score?
Response: 0.731

Prompt: # get_value(readout='z-score', item= C=C(/C(=C/C[C@@H](OC(=O)c1ccncc1)c1ccccc1OCCO)c1cc(C(=O)OC)ccc1OC)C(C)C )
Response: -2

Prompt: # input molecule: NC(=O)N1C(=O)C2C(C1=O)C1C=C(CCCO)C2C(c2cccs2)N1Cc1cc2c(cc1Br)OCO2 (stereo not given) ; wanted: its z-score
Response: 0.199

Prompt: State the recorded z-score for this entry: O=C1c2ccccc2[C@](Cc2ccccc2I)(C(=O)NCc2ccccc2)[C@H](c2ccc(CO)cc2)N1C1CCCCC1
Response: -1.93

Prompt: What value of z-score has been reported for the following molecule? COCCOC(=O)N1C(=O)[C@@]2(c3cc(C#Cc4ccc(OC)cc4)ccc31)[C@H](C(=O)NC[C@H](O)c1ccccc1)[C@H]1C(=O)O[C@H](c3ccccc3)[C@H](c3ccccc3)N1[C@@H]2c1ccc(O)cc1
Response: -1.45

Prompt: # z-score lookup, item O=C(CCCCCCC(=O)Nc1ccccc1)N/N=C/c1ccccc1
Response: -0.529

Prompt: Name the reported z-score value associated with the molecule C[C@]1(C(=O)O)c2ccccc2C(=O)N(Cc2ccccc2)[C@H]1c1ccc(CO)cc1
Response: -0.413

Prompt: Entry CC(C)CNC(=O)[C@@H]1c2ccccc2C(=O)N(Cc2cc(F)cc(C(F)(F)F)c2)[C@H]1c1ccc(CO)cc1 has what z-score?
Response: -0.604

Prompt: Returns the measured z-score for the input molecule. Input: [N-]=[N+]=Nc1ccccc1[C@@H]1OC(c2ccc(OCCCO)cc2)=N[C@]1(CCS(=O)(=O)c1ccccc1)C(=O)NCCN1CCOCC1
Response: -0.485

Prompt: Which measured z-score value corresponds to CCCC[C@@H]1C[C@H]1[C@@H](NC(=O)c1ccccc1)c1ccc(Cl)cc1 ?
Response: -1.65

Prompt: What value of z-score has been recorded for this entry: C[C@H]1C2=C3C(CC[C@H]4C(OCc5ccc(F)cc5C(F)(F)F)OC[C@](C)([C@@H]34)N(C(=O)OC(C)(C)C)C2)C2COC(=O)OCC21 (stereo not given in full)
Response: -1.84

Prompt: Consider the molecule shown here: NCCCCCCNC(=O)[C@@H]1C[C@@H]2C(=O)N3CCC[C@H]3C(=O)N2[C@@H]1c1ccc(O)cc1 What is its recorded z-score?
Response: 0.808

Prompt: Given the molecule COc1ccc([Si](C)(C)[C@@H]2[C@@H](CCn3cc([C@H](O)c4ccccc4)nn3)O[C@]3(C(=O)N(Cc4ccc(N5CCOC5=O)cc4)c4ccccc43)[C@H]2C)cc1 , what is its reported z-score?
Response: -2.29

Prompt: Which z-score reading was recorded for the molecule O=C1O[C@H](c2ccccc2)[C@H](c2ccccc2)N2[C@H]1[C@@H](C(=O)O)[C@]1(C(=O)Nc3ccccc31)[C@H]2c1ccc(O)cc1 ?
Response: -0.361

Prompt: State the recorded z-score for this entry: CC(C)(C)OC(=O)CC[C@@]1(C(=O)O)N=C(c2ccc(OCCCO)cc2)O[C@@H]1c1ccccc1CN=[N+]=[N-]
Response: -2.21

Prompt: # z-score lookup, item COc1ccc(NN2C(C(O)c3ccco3)C=CC3C(=O)N(C4CCCCC4)C(=O)C32)cc1 (stereo not given)
Response: 0.224

Prompt: I have this molecule here, CC[C@H]1C2=C3C(CC[C@H]4C(OCc5ccc(F)cc5C(F)(F)F)OC[C@](C)([C@@H]34)N(C(=O)OC(C)(C)C)C2)C2COC(=O)OCC21 (stereo not given in full) , and I need its recorded z-score.
Response: -2.1

Prompt: Using the record for CCOC(=O)C[C@H]1[C@H](OC(=O)c2ccccc2-c2ccccc2)[C@@H](NC(=O)CC(C)C)c2cc(OCCCO)ccc2N1C(=O)c1ccc2ccccc2n1 , report its z-score.
Response: -0.578

Prompt: I would be grateful if you could share the reported z-score for COCC(=C=CC[C@H](O)c1cccc(OCCO)c1)C[C@H](O)c1ccccn1 .
Response: -0.0093

Prompt: Given the entry Cc1ccc(S[C@]2(C(=O)NC3CC3)CC(=O)N(Cc3ccccc3Cl)[C@@H]2c2ccc(CO)cc2I)cc1 , report its measured z-score.
Response: -1.57

Prompt: Which z-score value is on record for COc1ccc(C(O)C2C=CC3C(=O)N(Cc4ccccc4)C(=O)C3N2n2cnnc2)c2ccccc12 (stereo not given) ?
Response: -0.6

Prompt: Need z-score of CCCC[C@@H]1C[C@H]1[C@@H](NC(=O)c1cccnc1)c1ccc(-c2ccccc2)cc1 , thanks.
Response: -1.95

Prompt: Need z-score of CC(C)CN1C(=O)[C@@]2(Cc3ccccc31)c1ccccc1C(=O)N(Cc1ccccc1C(F)(F)F)[C@H]2c1ccc(CO)cc1 , thanks.
Response: 0.186
